# reported TGI; entries follow
tested on: EKVX NSCLC; test: NCI tumour cell line growth inhibition, 48 h
readoutKind: TGI

[[record]]
molecule = "Cn1c2ccccc2c2c(=O)n(CCCC(=O)OC(=NC3CCCCC3)NC3CCCCC3)c3c(-c4ccccc4)nnn3c21"
measvalue = "> 100 µM"

[[record]]
molecule = "COc1cccc(/C=C\\c2ccc(O)cc2)c1"
measvalue = "> 100 µM"

[[record]]
molecule = "COc1cc(C2c3c(ccc4ccccc34)C(=O)C3CCC(=O)N32)cc(OC)c1O (stereo unspecified)"
measvalue = "> 25 µM"

[[record]]
molecule = "Cc1nccc2c3ccc(OCc4cn(-c5ccc(Cl)cc5)nn4)cc3n(CC(C)C)c12"
measvalue = "32.6 µM"

[[record]]
molecule = "O=c1c2c(F)c(F)c(F)c(F)c2sc2nccn12"
measvalue = "50.2 µM"

[[record]]
molecule = "COC(=O)C(/C(=N\\NC(N)=S)C(=O)Nc1ccccc1[N+](=O)[O-])c1cnc2ccccc2n1 (stereo unspecified)"
measvalue = "> 100 µM"

[[record]]
molecule = "COc1cccc(NC(=O)C(=O)C2C=CCS2(=O)=O)c1 (stereo unspecified)"
measvalue = "> 100 µM"

[[record]]
molecule = "O=C(/C=C/OC(=O)c1cccc(Cl)c1)c1ccc(Cl)cc1"
measvalue = "> 100 µM"

[[record]]
molecule = "O=C1c2ccccc2C(=O)c2c(NCCCN3CCOCC3)ccc(NCCCN3CCOCC3)c21"
measvalue = "46.6 µM"

[[record]]
molecule = "O=C1CCCc2ccc3c(c21)CC1(Cc2ccccc2C1)C3"
measvalue = "> 100 µM"

[[record]]
molecule = "c1ccc2c(NCCCCCCNc3cccc4ccccc34)cccc2c1"
measvalue = "> 100 µM"

[[record]]
molecule = "CN(C)CCOC(=O)Nc1nc2ccc(Sc3ccccc3)cc2[nH]1"
measvalue = "22.7 µM"

[[record]]
molecule = "CC(C)C1N2CCCCC2[C@@H]2c3[nH]c4ccccc4c3CCN12 (stereo partly specified)"
measvalue = "> 100 µM"

[[record]]
molecule = "[O-]c1c2c(nn1-c1ccc(Cl)cc1)c1ccccc1c[n+]2Cc1ccccc1"
measvalue = "> 100 µM"

[[record]]
molecule = "COC(=O)C1C=CCON2CCc3c(n(S(=O)(=O)c4ccccc4)c4ccccc34)C12 (stereo unspecified)"
measvalue = "> 84.8 µM"

[[record]]
molecule = "COc1ccc(/C=C2\\c3cc(OC)c(OC)c(OC)c3CC[C@@H]2O)cc1F"
measvalue = "> 100 µM"

[[record]]
molecule = "CCCN1CCC(c2ccc(Nc3nc(Nc4cc(F)ccc4C(N)=O)c4cc[nH]c4n3)c(OC)c2)CC1"
measvalue = "8.18 µM"

[[record]]
molecule = "CN1CCN(Cc2cc(NC(=O)c3cccc(C#Cc4cccc5[nH]nc(N)c45)c3)cc(C(F)(F)F)c2)CC1"
measvalue = "3.26 µM"

[[record]]
molecule = "CCOC(=O)c1cc(C2CCN(Cc3ccccc3)C2=S)c(C(=O)C=[N+]=[N-])[nH]1 (stereo unspecified)"
measvalue = "89.6 µM"

[[record]]
molecule = "COC(=O)/C(C#N)=C(\\N)c1c(C)c2ccccc2oc1=N"
measvalue = "> 100 µM"

[[record]]
molecule = "C=CCCCCCCCCC(=O)O"
measvalue = "255 µM"


* * *

test system: HS 578T breast; test: NCI tumour cell line growth inhibition, 48 h
readoutKind: TGI

[[record]]
compound = "NC(Cc1ccc(B(O)O)cc1)C(=O)NC(CO)CO (centres undefined)"
targetorsystem = "HS 578T breast"
readoutkind = "TGI"
measvalue = "> 100 µM"

[[record]]
compound = "O=C(O[C@H]1CCN2C[C@H]3C[C@H](CN4C(=O)CCC[C@H]34)[C@@H]2C1)c1ccc(O)cc1"
targetorsystem = "HS 578T breast"
readoutkind = "TGI"
measvalue = "> 100 µM"

[[record]]
compound = "CCO/C(Cc1ccc(Cl)cc1)=N/NC(N)=S"
targetorsystem = "HS 578T breast"
readoutkind = "TGI"
measvalue = "> 100 µM"

[[record]]
compound = "Nc1ccc(Sc2c3ccccc3nc3ccccc23)cc1"
targetorsystem = "HS 578T breast"
readoutkind = "TGI"
measvalue = "> 68.4 µM"

[[record]]
compound = "CC(=O)OCC1OC(n2nc(Cc3ccccc3)c(=S)[nH]c2=S)C(OC(C)=O)C(OC(C)=O)C1OC(C)=O (centres undefined)"
targetorsystem = "HS 578T breast"
readoutkind = "TGI"
measvalue = "45.4 µM"

[[record]]
compound = "CCOC(=O)C(OP(=O)(OCC)OCC)C(F)(F)F (centres undefined)"
targetorsystem = "HS 578T breast"
readoutkind = "TGI"
measvalue = "> 100 µM"

[[record]]
compound = "CNC(=O)NS(=O)(=O)c1ccc(C)cc1"
targetorsystem = "HS 578T breast"
readoutkind = "TGI"
measvalue = "> 100 µM"

[[record]]
compound = "CC1C(c2ccccc2O)c2cc3c(cc2OC1N1CCOCC1)OCO3 (centres undefined)"
targetorsystem = "HS 578T breast"
readoutkind = "TGI"
measvalue = "57.9 µM"

[[record]]
compound = "CC(=O)/C(C=Nc1c(C)n(C)n(C)c1=O)=C(/O)c1ccccc1"
targetorsystem = "HS 578T breast"
readoutkind = "TGI"
measvalue = "> 50 µM"


* * *

# reported TGI; entries follow
system: UACC-62 melanoma; assay: NCI tumour cell line growth inhibition, 48 h
readoutKind: TGI

[[record]]
compound = "O=c1c2c(c1=O)-c1ccccc1CN2"
measvalue = "> 100 µM"

[[record]]
compound = "CCCN(CCC)C1=Nc2ccccc2-n2cnnc2C1"
measvalue = "> 100 µM"

[[record]]
compound = "c1ccc(N/N=C2\\NN=C(c3ccccc3)CS2)cc1"
measvalue = "21.5 µM"

[[record]]
compound = "CNC(=O)NS(=O)(=O)c1ccc(C)cc1"
measvalue = "> 100 µM"

[[record]]
compound = "COc1ccc(OC)c(/C=C/c2nc(SCc3ccccc3)n(-c3ccc(Cl)cc3)n2)c1"
measvalue = "> 100 µM"

[[record]]
compound = "CCOP1(=O)C=C(C)C(=C(Cl)Cl)C(C)=C1 (stereo unspecified)"
measvalue = "23.6 µM"

[[record]]
compound = "CCOC(=O)C(OP(=O)(OCC)OCC)C(F)(F)F (stereo unspecified)"
measvalue = "> 100 µM"

[[record]]
compound = "O=[N+]([O-])c1ccc(Sc2ccncn2)c([N+](=O)[O-])c1"
measvalue = "19.3 µM"

[[record]]
compound = "CCN(Cc1ccc(F)cc1)c1ccc(CO)c(OC)c1"
measvalue = "17.3 µM"

[[record]]
compound = "CC1CN=C(Nc2ccc(F)c(Cl)c2)S1 (stereo unspecified)"
measvalue = "> 100 µM"

[[record]]
compound = "Cc1cc(Cl)ccc1NC(=O)C(=O)C(C(=O)c1ccccc1)C1OC(=O)c2ccccc21 (stereo unspecified)"
measvalue = "> 100 µM"

[[record]]
compound = "CC1=C([Se]CC(OC(=O)[C@@H](CO)NC(=O)OC(C)(C)C)C(=O)NCCCCCC(=O)OCc2ccccc2)C(=O)c2ccccc2C1=O (stereo partly specified)"
measvalue = "3.07 µM"

[[record]]
compound = "O=C1NC(c2cccc(OCc3ccccc3)c2)Nc2ccccc21 (stereo unspecified)"
measvalue = "> 27.1 µM"

[[record]]
compound = "COC(=O)/C(=N\\NC(N)=O)C(C(=O)C=C(C)C)C(=O)C(=O)Nc1ccc(Cl)c(Cl)c1 (stereo unspecified)"
measvalue = "> 100 µM"

[[record]]
compound = "C[CH2][Sn]([CH2]C)([O]C(=O)c1ccc(OC)c(OC)c1OC)[O]C(=O)c1ccc(OC)c(OC)c1OC"
measvalue = "> 100 µM"

[[record]]
compound = "CCCCOC(=O)c1cc(C(=CCC[C@H]2CC[C@@]3(C)[C@@H](CC[C@@H]4[C@@H]3CC[C@]3(C)[C@@H](C(C)CCCC(C)C)CC[C@@H]43)C2)c2cc(Cl)c(O)c(C(=O)OCCCC)c2)cc(Cl)c1O (stereo partly specified)"
measvalue = "> 50 µM"

[[record]]
compound = "O=[N+]([O-])c1cccc(N=Nc2c(O)ccc3ccccc23)c1"
measvalue = "> 100 µM"

[[record]]
compound = "Cc1ccccc1C1CC(c2ccccc2)=NO1 (stereo unspecified)"
measvalue = "> 100 µM"

[[record]]
compound = "O=c1c2c(F)c(F)c(F)c(F)c2sc2nccn12"
measvalue = "31.8 µM"

[[record]]
compound = "CN1CCN(Cc2cc(NC(=O)c3cccc(C#Cc4cccc5[nH]nc(N)c45)c3)cc(C(F)(F)F)c2)CC1"
measvalue = "3.22 µM"

[[record]]
compound = "Cc1ccc(-c2cc(-c3ccco3)c(C#N)c(=O)n2C2OC(CO)C(O)C(O)C2O)cc1 (stereo unspecified)"
measvalue = "> 100 µM"


* * *

tested on: HOP-62 NSCLC; test: NCI tumour cell line growth inhibition, 48 h; in the data active = GI50 below about 0.43 µM; inactive = the rest
Classes used: active, inactive

[[record]]
smilesstring = "CCC[CH2][Pb]([Cl])([CH2]CCC)[CH2]CCC"
labelclass = "active"

[[record]]
smilesstring = "O=[N+]([O-])c1ccc(Sc2ccncn2)c([N+](=O)[O-])c1"
labelclass = "inactive"

[[record]]
smilesstring = "C[CH2][Sn]([CH2]C)([O]C(=O)c1ccc(OC)c(OC)c1OC)[O]C(=O)c1ccc(OC)c(OC)c1OC"
labelclass = "inactive"

[[record]]
smilesstring = "CN(C)CCNC(=O)NC[C@H]1CC[C@@H]2[C@H](O1)c1cc(C(F)(F)F)ccc1N[C@H]2c1ccccc1"
labelclass = "inactive"

[[record]]
smilesstring = "COC1=CC(=O)c2nc(Cl)ccc2C1=O"
labelclass = "inactive"

[[record]]
smilesstring = "Nc1c(F)cc(-c2nc3cc(F)ccc3[se]2)cc1Br"
labelclass = "inactive"

[[record]]
smilesstring = "COc1cc2c(cc1C)NC(=O)/C2=C\\c1c[nH]c2ccccc12"
labelclass = "inactive"

[[record]]
smilesstring = "C=C1C(=O)O[C@H]2[C@H]1CC/C(COC(=O)NCCCCCCCCNC(=O)OC/C1=C/CC[C@@]3(C)O[C@H]3[C@H]3OC(=O)C(=C)[C@@H]3CC1)=C\\CC[C@@]1(C)O[C@@H]21"
labelclass = "inactive"

